FYI, the data here is from PubChem BioAssay AID1259408.

System: GENE-TOX genotoxicity assays, various organisms and cells
PROTOCOL NOTES: GENE-TOX mutagenicity studies
TEST CONTEXT: Species/Cell Type: Syrian hamster embryo (SA7/SHE) cells; Assay Type: Cell transformation, viral enhanced; Assay Code: CT7+; Evaluation Type: Evaluation A (Pre-1980)
Calls of active or inactive are those of the source. No rule for the calls is given here.

- COMPOUND: "[Cl][Fe][Cl]"
  mutagenic call: "active; positive"
- COMPOUND: "CCNc1nc(Cl)nc(NCC)n1"
  mutagenic call: "active; positive"
- COMPOUND: "[Cl][Cd][Cl]"
  mutagenic call: "active; positive"
- COMPOUND: "NC(=O)CCl"
  mutagenic call: "active; positive"
- COMPOUND: "c1ccc2c(c1)ccc1cc3c(ccc4ccccc43)cc12"
  mutagenic call: "active; positive"
- COMPOUND: "Oc1c(Cl)c(Cl)c(Cl)c(Cl)c1Cl"
  mutagenic call: "active; positive"
- COMPOUND: "Cc1ccccc1N=Nc1ccc(N=Nc2c(O)ccc3ccccc23)c(C)c1"
  mutagenic call: "active; positive"
- COMPOUND: "Nc1ccn([C@@H]2O[C@H](CO)[C@@H](O)C2O)c(=O)n1 (stereo partly specified)"
  mutagenic call: "active; positive"
- COMPOUND: "CCOS(C)(=O)=O"
  mutagenic call: "active; positive"
- COMPOUND: "COCCl"
  mutagenic call: "active; positive"
- COMPOUND: "[Cl][Hg][Cl]"
  mutagenic call: "active; positive"
- COMPOUND: "Nc1nc(=O)n([C@H]2C[C@H](O)[C@@H](CO)O2)cc1Br"
  mutagenic call: "active; positive"
- COMPOUND: "BrCCBr"
  mutagenic call: "active; positive"
- COMPOUND: "CC1CO1 (stereo unspecified)"
  mutagenic call: "active; positive"
- COMPOUND: "CC(=O)[O-].[Tl+]"
  mutagenic call: "active; positive"
- COMPOUND: "NC(=O)NO"
  mutagenic call: "active; positive"
